- MEASURED TARGET: Serine/threonine-protein kinase Chk1 (Homo sapiens)
- Sequence (O14757 whole entry): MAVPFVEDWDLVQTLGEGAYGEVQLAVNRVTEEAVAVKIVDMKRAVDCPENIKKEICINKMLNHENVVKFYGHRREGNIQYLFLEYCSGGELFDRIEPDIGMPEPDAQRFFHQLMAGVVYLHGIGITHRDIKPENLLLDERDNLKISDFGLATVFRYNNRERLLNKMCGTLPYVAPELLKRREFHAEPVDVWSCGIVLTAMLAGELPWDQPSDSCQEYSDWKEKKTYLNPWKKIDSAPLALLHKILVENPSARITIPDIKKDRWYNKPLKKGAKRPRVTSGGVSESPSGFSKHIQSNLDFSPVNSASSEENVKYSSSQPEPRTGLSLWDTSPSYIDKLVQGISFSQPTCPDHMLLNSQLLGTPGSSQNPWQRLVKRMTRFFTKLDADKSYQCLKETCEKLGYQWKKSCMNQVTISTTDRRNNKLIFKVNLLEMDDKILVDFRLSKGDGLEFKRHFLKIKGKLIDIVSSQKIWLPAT
- MEASUREMENT NOTES: Inhibition of human recombinant Chk1 using biotinylated AKT substrate after 30 mins by Alphascreen biochemical assay
Each entry below carries its reported IC50.
ASSAY READOUT: IC50 (nM)

1. N#Cc1cc2c(cn1)[nH]c1ncc(-c3ccc(CN4CCCCC4)cc3)cc12 1
2. N#Cc1cc2c(cn1)[nH]c1ncc(-c3cccc(CO)c3)cc12 27.1
3. c1ncc(-c2cc3c(cn2)[nH]c2ncc(-c4ccc(CN5CCCCC5)cc4)cc23)s1 1.3
4. N#Cc1cc2c(cn1)[nH]c1ncc(-c3ccc(CN4CCC(C#N)CC4)cc3)cc12 11.6
5. c1ncc(-c2cc3c(cn2)[nH]c2ncc(-c4ccc(CN5CCCCC5)cc4)cc23)o1 0.46
